Entry source: PubChem BioAssay (NCI)

Tested on: PC-3 prostate
Experiment: NCI-60 one-dose screen, 48 h
Conditions: 10 µM unless noted
Compounds without any hit were thinned out: in the full panel of roughly 83,000, 20% have a hit. Activity calls are given as the source filed them. How the source made its calls: active means growth percent below 10; inactive means the rest.
Thanks in advance; please answer with one of these: T = active, F = inactive

In [3]: df
Out[3]:
                         structure_notation  group
0  Cc1nn(-c2ccccc2)c(N)c1N=C1NC(=O)/C(=C/c2ccc(Br)cc2)S1      F
1  CN1CCN(Cc2ccc(NC(=O)c3cncc(C#Cc4cnc5ccc(Cl)nn45)c3)cc2C(F)(F)F)CC1      T

## Task # lookup: test call for N#C/C(=C\c1cn(Cc2ccccc2)c2ccccc12)C(=O)Nc1ncc(Cc2ccccc2Cl)s1
## Result F

====

Measured growth, listed per entry for reference.
System: SR leukemia
Assay: NCI-60 one-dose screen, 48 h (100 = growth as untreated, 0 = no growth, -100 = all killed)
Conditions: 10 µM unless noted
Procedure: Growth inhibition of the SR human tumor cell line is measured as a screen for anti-cancer activity. Cells are grown in 96 well plates and exposed to the test compound for 48 hours. Compounds are tested at a single concentration, which is 10^-5 M for most compounds. The reported endpoint is percent growth (GI% or GIPRCNT), where numbers from 0 - 100% represent growth inhibition, and numbers from -100% - 0 represent cell death. For example, a value of 40 represents 60% growth inhibition. […]
Compounds without any hit were thinned out: in the full panel of roughly 83,000, 20% have a hit.
Could you give me the number in %? Just the number is fine.

Worked cases, answers included:
>>> df
                         structure_notation  measurement_label  reported_result
0  COc1ccc(C#Cc2ccc(=O)oc2-c2cc(OC)c(OC)c(OC)c2)cc1O             growth             13.7
1  COc1ccc(/C(C)=C(\c2ccc(Cl)cc2)c2ccc(OCCN3CCCCC3)cc2)cc1             growth            -7.55
2  O=C(O)c1cn(C2CC2)c2cc(N3CCN(C(=O)Nc4nc(-c5ccc(Br)cc5)cs4)CC3)c(F)cc2c1=O             growth             21.5
3  O=C1/C(=C/c2ccc(O)c(O)c2)COc2ccc(-c3ccccc3)cc21             growth              -20
4  O=C1c2ccccc2C(=O)c2c1c(C(=O)NCc1ccccc1)c1ccccn21             growth             90.9

## Task Missing value: growth, SR leukemia, entry CN1CCN(Cc2ccc(NC(=O)c3cncc(C#Cc4cnc(N)c5ccc(F)cc45)c3)cc2C(F)(F)F)CC1 . Fill in?
## Result -25.9

## Task Missing value: growth, SR leukemia, entry CSc1nn2c(-c3ccc4ccccc4c3)ccnc2c1C#N . Fill in?
## Result 13.8

## Task Missing value: growth, SR leukemia, entry CCOC(=O)C1=C(C)C(Cl)=N/C1=C\c1[nH]c(Cl)c(C)c1C(=O)OCC . Fill in?
## Result 86.3

## Task Missing value: growth, SR leukemia, entry O=C1/C(=C/c2ccccn2)NC(=S)N1c1ccccc1Cl . Fill in?
## Result 19.3

## Task Missing value: growth, SR leukemia, entry Nc1[nH]c(=S)nc2oc(-c3ccccc3)c(-c3ccccc3)c12 . Fill in?
## Result 93.8

====

Tested on: NCI-H522 lung
Assay: NCI-60 one-dose screen, 48 h (100 = growth as untreated, 0 = no growth, -100 = all killed)
Settings: 10 µM unless noted
The panel holds about 83,000 compounds, 20% with a hit somewhere; the sample as a whole holds those more often.
Returns one of Yes or No; Yes when growth is >= 70%.

Take a look at these entries with their results.
compound	group
COC(=O)c1ccc(NC(=O)Nc2ccc(C(=O)OC)cc2)cc1	No
Cc1nc2cc(O)c(O)cc2cc1Oc1ccc(NC(=O)Nc2ccc(Cl)c(Cl)c2)cc1	No
Cc1ccc(C)c(/C=C2\CN(C(=O)OC(C)(C)C)C/C(=C\c3cc(C)ccc3C)C2=O)c1	No
Cc1ccc2c(=O)cc(C(=O)Nc3sc4c(c3C(=O)NCc3cccnc3)CCCC4)oc2c1C	Yes
CCSc1oc(C)nc1[P+](c1ccccc1)(c1ccccc1)c1ccccc1	No

## Task Please indicate if the recorded growth for COc1cc(NC(=O)c2cncnc2Nc2ccc3c(ccn3Cc3ccccn3)c2)cc(OC)c1 meets or exceeds 70%.
## Result No

## Task Please indicate if the recorded growth for Cc1ccc2c(-c3nnc(N)s3)cc(=O)oc2c1C meets or exceeds 70%.
## Result Yes

## Task Please indicate if the recorded growth for O=c1ccc(=O)n(-c2nc(-c3ccc([N+](=O)[O-])cc3)cs2)[nH]1 meets or exceeds 70%.
## Result Yes

## Task Please indicate if the recorded growth for Cc1ccc(CNc2ccc3nc(CCC(C)C)[nH]c3c2)cc1 meets or exceeds 70%.
## Result Yes

## Task Please indicate if the recorded growth for O=C1c2ccccc2C(=O)c2c1cc1c(c2[N+](=O)[O-])OCO1 meets or exceeds 70%.
## Result No

====

Test system: U251 CNS
Experiment: NCI-60 one-dose screen, 48 h (100 = growth as untreated, 0 = no growth, -100 = all killed)
Details: 10 µM unless noted
About 83,000 compounds went through this panel and 20% of them were active in at least one assay; those are over-represented in the sample as a whole. Calls of active or inactive are those of the source. Rule for the calls: active = growth percent below 10; inactive = the rest.
Measured growth, listed per entry for reference.

>>> df
                                   compound  measurement_label             reported_result
0  CC[N+]1(CC)CC[N+]2(CCCC(C)CC2)CC1 (stereo not given)             growth             111% (inactive)
1  O=C(CN1CCN(c2cc3c(cc2F)c(=O)c(C(=O)O)cn3C2CC2)CC1)N/N=C/c1ccco1             growth            96.7% (inactive)
2   C#CCn1cnc2cnc(Nc3cccc(NC(=O)C=C)c3)nc21             growth  75.5% [6.25 µM] (inactive)
3  CCCCNc1nnc2n(Cc3ccccc3)c(=O)c3c4c(sc3n12)CCCC4             growth            48.5% (inactive)

Attention now turns to another entry.
## Task Missing value: growth, U251 CNS, entry C=CCn1c(SCC(=O)Nc2ccc(/C(C)=N/O)cc2)nnc1-c1cc(-c2ccc(S(N)(=O)=O)cc2)nc2ccccc12 . Fill in?
## Result 67.2% (inactive)

====

System: UO-31 renal
Experiment: NCI-60 one-dose screen, 48 h
Details: 10 µM unless noted
Description: Growth inhibition of the UO-31 human tumor cell line is measured as a screen for anti-cancer activity. Cells are grown in 96 well plates and exposed to the test compound for 48 hours. Compounds are tested at a single concentration, which is 10^-5 M for most compounds. The reported endpoint is percent growth (GI% or GIPRCNT), where numbers from 0 - 100% represent growth inhibition, and numbers from -100% - 0 represent cell death. For example, a value of 40 represents 60% growth inhibition. […]
About 83,000 compounds went through this panel and 20% of them were active in at least one assay; those are over-represented in the sample as a whole. Calls of active or inactive are those of the source. The calls were made as follows: active = growth percent below 10; inactive = the rest.
Thanks in advance; please answer with one of these: 1 (yes) for active, 0 (no) for inactive

Take a look at these entries with their results.
>>> print(df.to_string())
                                   compound    group
0  CN1CCN(CCOc2ccc(-c3cnc4c(-c5ccc(F)cc5)cnn4c3)cc2)CC1   0 (no)
1  CCN1CCN(c2cc(C)nc(N(CCNc3ccnc4cc(Cl)ccc34)Cc3ccc4c(c3)OCO4)n2)CC1  1 (yes)
2  Cc1ccc2c(-n3nc(C#N)c(C#N)c3N)cc(=O)[nH]c2c1   0 (no)
3  Cc1ccc(Cl)cc1NC(=O)c1sc2nc3c(cc2c1N)C(=O)CCC3   0 (no)
4  COC(=O)/C=C1/SC(=Nc2ccc([N+](=O)[O-])cc2)N(CCc2c[nH]c3ccc(O)cc23)C1=O   0 (no)

## Task # lookup: test call for Cn1c2c(c3ccc(Cl)c(Cl)c31)C(C#N)C(C)(C)NC2=O (centres undefined)
## Result 0 (no)

## Task # lookup: test call for CC1(C)C(N)=Nc2cc(OCCCN3Cc4ccccc4C3)c(OCC3CC3)cc21
## Result 0 (no)

## Task # lookup: test call for CC1=C2[C@@H](CC1)[C@]1(C)O[C@@](c3ccccc3)(C[C@H]1OC(=O)CO)[C@H]2OC(=O)/C=C/c1ccccc1
## Result 1 (yes)

## Task # lookup: test call for CCN1C(=O)N(CC)C2C1NC(=S)N2/N=C/c1ccc(OC)cc1 (centres undefined)
## Result 0 (no)
